- Target: MDR1 (P-gp) (Homo sapiens (Human))
- Sequence (P08183 whole entry): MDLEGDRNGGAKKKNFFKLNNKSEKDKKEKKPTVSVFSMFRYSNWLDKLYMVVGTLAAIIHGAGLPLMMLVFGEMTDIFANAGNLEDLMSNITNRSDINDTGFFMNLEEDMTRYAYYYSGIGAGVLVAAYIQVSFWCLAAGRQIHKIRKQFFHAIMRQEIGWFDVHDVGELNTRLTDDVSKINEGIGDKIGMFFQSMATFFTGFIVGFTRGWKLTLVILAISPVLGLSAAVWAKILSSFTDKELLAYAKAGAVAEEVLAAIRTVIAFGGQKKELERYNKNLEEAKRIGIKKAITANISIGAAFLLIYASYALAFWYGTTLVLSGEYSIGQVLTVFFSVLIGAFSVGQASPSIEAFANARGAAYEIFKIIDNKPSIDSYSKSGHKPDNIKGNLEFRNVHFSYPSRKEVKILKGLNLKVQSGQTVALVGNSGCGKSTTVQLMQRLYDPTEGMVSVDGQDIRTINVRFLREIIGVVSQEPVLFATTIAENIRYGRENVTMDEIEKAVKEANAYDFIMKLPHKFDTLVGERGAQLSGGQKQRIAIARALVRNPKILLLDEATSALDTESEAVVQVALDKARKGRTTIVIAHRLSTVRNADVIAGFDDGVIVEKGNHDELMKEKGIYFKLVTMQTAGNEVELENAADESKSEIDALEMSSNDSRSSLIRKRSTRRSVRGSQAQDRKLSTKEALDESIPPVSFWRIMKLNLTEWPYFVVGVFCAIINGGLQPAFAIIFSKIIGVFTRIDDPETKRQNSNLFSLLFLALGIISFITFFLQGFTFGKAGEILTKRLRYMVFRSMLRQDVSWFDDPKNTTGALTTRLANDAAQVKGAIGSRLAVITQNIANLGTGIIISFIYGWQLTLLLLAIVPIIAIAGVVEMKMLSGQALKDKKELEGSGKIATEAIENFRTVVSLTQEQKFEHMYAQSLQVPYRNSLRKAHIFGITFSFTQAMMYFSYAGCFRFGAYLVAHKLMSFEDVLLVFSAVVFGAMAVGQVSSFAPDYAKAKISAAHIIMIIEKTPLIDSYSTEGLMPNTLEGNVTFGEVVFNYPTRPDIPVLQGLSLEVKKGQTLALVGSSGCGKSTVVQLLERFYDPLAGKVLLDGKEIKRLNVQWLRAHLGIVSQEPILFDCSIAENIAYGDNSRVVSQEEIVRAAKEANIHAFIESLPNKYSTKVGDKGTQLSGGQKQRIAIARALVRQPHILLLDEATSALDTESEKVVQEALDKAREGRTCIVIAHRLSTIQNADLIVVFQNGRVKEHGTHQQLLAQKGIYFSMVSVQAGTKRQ
- Assay Details: MDR1 transfected MDCKII canine Mdr1 knockout permeability/efflux, Assay 7
- Experimental Setup: dog, MDCK-MDR1
Recorded Endpoint: efflux ratio at 2 h, 1 μM
// keep it numeric: no unit symbol after the value

Here is how some compounds turned out for efflux ratio at 2 h, 1 μM.
                                   compound                              target          recorded_endpoint  result_number
0  CO[C@@H]1CN(c2ncc3ncnc(Nc4ccc(Oc5ccc6c(c5)ncn6C)c(C)c4)c3n2)C[C@H]1O (racemic) [Example 107]  MDR1 (P-gp) (Homo sapiens (Human))  efflux ratio at 2 h, 1 μM            3.2
1  Cc1cc(Nc2ncnc3cnc(N(C)[C@H]4CCOC4)nc23)ccc1Oc1ccc2c(c1)ncn2C [Example 131]  MDR1 (P-gp) (Homo sapiens (Human))  efflux ratio at 2 h, 1 μM            1.6
2  Cc1cc(Nc2ncnc3cnc(N(C)[C@H]4C[C@@H](O)C4)nc23)ccc1Oc1ccc2c(c1)ncn2C [Example 183]  MDR1 (P-gp) (Homo sapiens (Human))  efflux ratio at 2 h, 1 μM            1.7

Looking up CO[C@@H]1CN(c2ncc3ncnc(Nc4ccc(Oc5ccc6c(c5)ncn6C)c(C)c4)c3n2)C[C@@H]1O [Example 194] , I found its efflux ratio at 2 h, 1 μM recorded as 1.9

get_value(item= Cc1cc(Nc2ncnc3cnc(N4CCC[C@@](C)(O)C4)nc23)ccc1Oc1ccc2c(c1)ncn2C [Example 196] , readout=efflux ratio at 2 h, 1 μM) returns 1.6
